System: HIV-1 L1001-K103N
Test method notes: microbe, parasite or virus in culture
Format: cell-based, human immunodeficiency virus type 1 (HIV-1)
Test parameters: read-out: EC50 L1001-K103N; L1001-K103N mutant
pEC50: −log10 of the molar value.

Molecule smiles	pEC50
Cc1cc(C)c(Oc2nc(Nc3ccc(C#N)cc3)nc3[nH]cnc23)c(C)c1	7.00 to 8.00

* * *

Tested on: HIV-1 Y188L
Test method notes: microbe, parasite or virus in culture
Format: cell-based, human immunodeficiency virus type 1 (HIV-1)
Test parameters: Human immunodeficiency virus 1, read-out: EC50 Y188L (nM)
Quick reference for EC50 among some compounds

Molecule smiles	EC50
Cc1cc(C#N)cc(C)c1Oc1nc(Nc2ccc(C#N)cc2)nc2ccn(C)c12	< 10 nM
Cc1cc(C#N)cc(C)c1Oc1nc(Nc2ccc(C#N)cc2)nc2[nH]ccc12	< 10 nM
Cc1cc(C)c(Oc2nc(Nc3ccc(C#N)cc3)nc3ccn(Cc4ccccc4)c23)c(C)c1	> 100 nM
Cc1cc(C)c(Oc2nc(Nc3cccc(C#N)c3)nc3[nH]cnc23)c(C)c1	> 100 nM
CC(=O)c1cc(C)c(Oc2nc(Nc3ccc(C#N)cc3)nc3cc[nH]c23)c(C)c1	< 10 nM
